- assay target: P2X4 (Homo sapiens)
- method summary: Assay B: human P2X4 receptor cell line, mitochondrial photina luminescence (agonist Bz-ATP at EC50)
- Assay type: cell-based
- Parameters: host or cells: HEK 293 (recombinant, constitutively expressing; with mitochondrial photina in Assay B)
- condition summary: HEK human P2X4 cell line, photina luminescence, agonist Bz-ATP at EC50, average
Please respond with reported pIC50 for every item in the list.
Numbers only, as −log10 of the molar value.

Here's what some known entries look like.
INSERT INTO results (compound, value_reported) VALUES
  ('NS(=O)(=O)c1cc(NC(=O)Cc2ccccc2Cl)ccc1OC1CCCC1', 6.61),
  ('NS(=O)(=O)c1cc(NC(=O)Cc2ccccc2)ccc1Oc1cccc(F)c1', 6.26),
  ('N#Cc1cc(F)cc(Oc2ccc(NC(=O)Cc3ccccc3Cl)cc2S(N)(=O)=O)c1', 5.57),
  ('N#Cc1ccccc1COc1ccc(NC(=O)Cc2ccccc2Cl)cc1S(N)(=O)=O', 6.71),
  ('CC(Oc1ccc(NC(=O)Cc2ccccc2Cl)cc1S(N)(=O)=O)c1ccccc1 (single isomer, unassigned) [Example 148B]', 6.28),
  ('NS(=O)(=O)c1cc(NC(=O)Cc2ccccc2Cl)ccc1Oc1ccc[nH]c1=O', 5.65);

Quick one: give me pIC50 for each item below, same order please.
1. NS(=O)(=O)c1cc(NC(=O)Cc2cc(F)c(F)cc2Cl)ccc1Oc1cccc(Cl)c1
2. Cc1ccc(C#N)cc1Oc1ccc(NC(=O)Cc2ccccc2Cl)cc1S(N)(=O)=O
3. NS(=O)(=O)c1cc(NC(=O)Cc2ccccc2Cl)ccc1OCC1COC1

[6.43, 6.75, 5.93]

---

- assay target: mouse P2X4 receptors (Mus musculus)
- Construct: host or cells: HEK 293 (recombinant, constitutively expressing)
- Sequence (Q9JJX6 1-388): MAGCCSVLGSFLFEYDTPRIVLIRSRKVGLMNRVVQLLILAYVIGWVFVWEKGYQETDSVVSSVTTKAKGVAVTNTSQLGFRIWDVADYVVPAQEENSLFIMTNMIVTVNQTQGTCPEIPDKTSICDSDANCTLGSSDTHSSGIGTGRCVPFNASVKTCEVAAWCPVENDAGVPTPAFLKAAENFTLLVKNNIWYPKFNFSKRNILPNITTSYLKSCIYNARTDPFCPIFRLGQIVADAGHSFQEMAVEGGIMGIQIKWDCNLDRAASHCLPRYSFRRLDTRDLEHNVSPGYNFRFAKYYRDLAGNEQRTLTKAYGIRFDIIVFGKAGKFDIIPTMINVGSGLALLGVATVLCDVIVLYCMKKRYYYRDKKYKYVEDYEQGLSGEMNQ
- method summary: Assay B: mouse P2X4 receptor cell line, Fluo8 fluorescence FLIPR (agonist Bz-ATP at EC50)
- Format: cell-based
- condition summary: HEK mouse P2X4 cell line, agonist Bz-ATP at EC50, average
Outcome label depends on mouse P2X4 Assay B avg Efficacy relative to 40%: at/above gives 1, below gives -1.

INSERT INTO results (molecule, label) VALUES
  ('NS(=O)(=O)c1cc(NC(=O)Cc2ccccc2Cl)ccc1Oc1cncc(Cl)c1', 1),
  ('NS(=O)(=O)c1cc(NC(=O)Cc2ccccn2)ccc1Oc1cccc(Cl)c1', -1),
  ('NS(=O)(=O)c1cc(NC(=O)Cc2cc(F)ccc2Cl)ccc1Oc1cccc(Cl)c1', 1),
  ('NS(=O)(=O)c1cc(NC(=O)Cc2ccccc2Cl)ccc1Oc1ccc(-n2ccnc2)cc1', 1);

Can CC(C(=O)Nc1ccc(Oc2cccc(Cl)c2)c(S(N)(=O)=O)c1)c1c(F)cccc1Cl (centres unmarked) be said to have mouse P2X4 Assay B avg Efficacy at or above 40%?
1

Can NS(=O)(=O)c1cc(NC(=O)Cc2c(Cl)cccc2Cl)ccc1Oc1cccc(Cl)c1 be said to have mouse P2X4 Assay B avg Efficacy at or above 40%?
1

---

Please respond with reported Emax for every item in the list.
- assay target: P2X4 (Homo sapiens)
- method summary: Assay B: human P2X4 receptor cell line, mitochondrial photina luminescence (agonist Bz-ATP at EC50)
- Format: cell-based
- Parameters: host or cells: HEK 293 (recombinant, constitutively expressing; with mitochondrial photina in Assay B)
- condition summary: HEK human P2X4 cell line, photina luminescence, agonist Bz-ATP at EC50, average; read-out: human P2X4 Assay B avg Efficacy
One number for each entry, in %.

INSERT INTO results (entry_smiles, reported_property, readout_unit, value_reported) VALUES
  ('COc1ccc(CC(=O)Nc2ccc(Oc3ccc(Cl)cc3)c(S(N)(=O)=O)c2)cc1', 'Emax', '%', 56);

Quick one: give me Emax for each item below, same order please.
1. NS(=O)(=O)c1cc(NC(=O)Cc2ccccc2Cl)ccc1OCc1ncccn1
2. COc1cccc(CC(=O)Nc2ccc(Oc3cccc(Cl)c3)c(S(N)(=O)=O)c2)c1
3. NS(=O)(=O)c1cc(NC(=O)Cc2ccc(C(F)(F)F)cc2)ccc1Oc1ccccc1Cl
4. NS(=O)(=O)c1cc(NC(=O)Cc2ccccc2Cl)ccc1Oc1cc(Cl)cnc1Cl
5. CS(=O)(=O)c1cccc(Oc2ccc(NC(=O)Cc3ccccc3Cl)cc2S(N)(=O)=O)c1
6. NS(=O)(=O)c1cc(NC(=O)Cc2ccccc2Cl)ccc1Oc1ccc(Cl)cc1

[77, 72, 65, 60, 72, 46]

Quick one: give me Emax for each item below, same order please.
1. NS(=O)(=O)c1cc(NC(=O)Cc2cc(F)ccc2Cl)ccc1OCC1CCOCC1
2. NS(=O)(=O)c1cc(NC(=O)Cc2cccc(F)c2Cl)ccc1Oc1cccc(Cl)c1
3. NS(=O)(=O)c1cc(NC(=O)Cc2cccc(C(F)(F)F)c2Cl)ccc1Oc1cccc(Cl)c1

61
57
64

---

- assay target: UniProtKB Q99571
- Sequence (Q99571 1-388): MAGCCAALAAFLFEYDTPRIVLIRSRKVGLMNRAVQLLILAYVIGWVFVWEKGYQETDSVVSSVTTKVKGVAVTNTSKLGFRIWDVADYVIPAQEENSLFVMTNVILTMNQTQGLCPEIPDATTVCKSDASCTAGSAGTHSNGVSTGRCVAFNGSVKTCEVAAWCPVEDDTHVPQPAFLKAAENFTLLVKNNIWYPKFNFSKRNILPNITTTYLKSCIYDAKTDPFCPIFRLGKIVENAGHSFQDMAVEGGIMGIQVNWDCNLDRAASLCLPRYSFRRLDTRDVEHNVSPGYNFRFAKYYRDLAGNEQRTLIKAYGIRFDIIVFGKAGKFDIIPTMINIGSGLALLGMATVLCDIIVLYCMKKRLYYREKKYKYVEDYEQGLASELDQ
- method summary: Assay B: human P2X4 receptor cell line, mitochondrial photina luminescence (agonist Bz-ATP at EC50)
- Assay type: cell-based
- Design: host or cells: HEK 293 (recombinant, constitutively expressing; with mitochondrial photina in Assay B)
- condition summary: HEK human P2X4 cell line, photina luminescence, agonist Bz-ATP at EC50, average; read-out: human P2X4 Assay B avg Efficacy
reported property: Emax (%)
One number for each entry, in %.

Here's what some known entries look like.
INSERT INTO measurements (compound, value_reported) VALUES
  ('NS(=O)(=O)c1cc(NC(=O)Cc2ccccc2Cl)ccc1Oc1cncc(F)c1 [Example 080]', 51),
  ('CN(C)C(=O)c1ccccc1CC(=O)Nc1ccc(Oc2cccc(Cl)c2)c(S(N)(=O)=O)c1 [Example 198]', 60),
  ('NS(=O)(=O)c1cc(NC(=O)Cc2ccccc2Cl)ccc1Oc1ccc(C2CCC(=O)N2)cc1 (stereo not shown) [Example 062]', 70);

// switching to the query compound
Record NS(=O)(=O)c1cc(NC(=O)Cc2ccccc2Cl)ccc1OC1CCCC1 [Example 218] / UniProtKB Q99571, Emax recorded as 80

---

Please respond with reported Emax for every item in the list.
- assay target: P2X4 (Homo sapiens, UniProt Q99571)
- Sequence (Q99571 1-388): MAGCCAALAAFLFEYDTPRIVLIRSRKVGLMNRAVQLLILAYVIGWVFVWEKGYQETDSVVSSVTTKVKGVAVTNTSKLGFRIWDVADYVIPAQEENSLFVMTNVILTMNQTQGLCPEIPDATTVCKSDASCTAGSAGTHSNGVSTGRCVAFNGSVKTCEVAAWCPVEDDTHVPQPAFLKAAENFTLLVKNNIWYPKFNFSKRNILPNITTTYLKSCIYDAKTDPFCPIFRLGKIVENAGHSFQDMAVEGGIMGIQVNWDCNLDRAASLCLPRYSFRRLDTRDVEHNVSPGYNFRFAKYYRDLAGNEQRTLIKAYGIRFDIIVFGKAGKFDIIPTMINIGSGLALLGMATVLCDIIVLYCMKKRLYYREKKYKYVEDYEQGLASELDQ
- method summary: Assay B: human P2X4 receptor cell line, mitochondrial photina luminescence (agonist Bz-ATP at EC50)
- Format: cell-based
- Design: host or cells: HEK 293 (recombinant, constitutively expressing; with mitochondrial photina in Assay B)
- condition summary: HEK human P2X4 cell line, photina luminescence, agonist Bz-ATP at EC50, average; read-out: human P2X4 Assay B avg Efficacy
Answers are plain numbers, in %.

Here's what some known entries look like.
INSERT INTO measurements (entry_smiles, reported_property, value_reported) VALUES
  ('NS(=O)(=O)c1cc(NC(=O)Cc2ccncc2Cl)ccc1Oc1cccc(Cl)c1', 'Emax', 64),
  ('NS(=O)(=O)c1cc(NC(=O)Cc2ccccc2Cl)ccc1OCc1cccc(Cl)c1', 'Emax', 63),
  ('NS(=O)(=O)c1cc(NC(=O)Cc2ccccc2Cl)ccc1Oc1cccc(-c2nnn[nH]2)c1', 'Emax', 60),
  ('NS(=O)(=O)c1cc(NC(=O)Cc2ccccc2Cl)ccc1Oc1ccc(N2CCOCC2)cc1', 'Emax', 69);

// switching to the query compound
Per the records, this compound ( NS(=O)(=O)c1cc(NC(=O)Cc2ccccc2Cl)ccc1Oc1cnc(Cl)c(Cl)c1 ) has Emax equal to 79
